OD490 values for the binders below.
- target-under-test: T1, ACVR2B-Fc fusion protein (human, UniProt Q13705 19-137)
- T1 construct: also called water-soluble ACVR2B
- T1 sequence: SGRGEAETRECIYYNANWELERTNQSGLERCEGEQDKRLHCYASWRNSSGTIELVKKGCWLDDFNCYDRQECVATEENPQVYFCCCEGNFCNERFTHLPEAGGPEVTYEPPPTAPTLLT
- experiment: phage ELISA, ACVR2B coated

# binder, OD490 [OD]
measured = [
    ("ACVR2B B08 (monoclonal scFv-phage) (scFv, V domains shown, also called B8) VH: VQLVQSGGGLVHPGQSLRLSCTGSGFPFGDYSMTWVRQAPGKGLEWVGLVRSKAYGGTTEYAASVKGRFIMSRDDSRSIAYLQMNSLRAEDTAVYYCARGHYGMDVWGQGTTVTVSS VL: DIQMTQSPSSVSASVGDRVTITCRASQGISNWLAWYQQKPGKAPKLLIYAASSLQSGVPSRFSGSGSGTDFTLTISSLQPEDFATYYCQQAKSYPYTFGQGTKVEIK", 2.64),
    ("ACVR2B B12 (monoclonal scFv-phage) (scFv, V domains shown) VH: VQLVQSGAEVKKPGESLKISCKTSGYTFTHYWIGWVRQMPGKGLEWMGRINPTDSYADYSPSFQGHVIMSVDKSVSTAYLHWNSLKASDTAMYYCARGTALGVWGQGTTVTVSS VL: IQMTQSPSAMSASVGDRVTITCRASQGISNYLAWFQQKPGKVPKRLIYAASSLQSGVPSRFSGSGSGTEFTLTITSLQPEDFATYYCLQHKSYPYTFGQGTKLEIK", 2.75),
    ("ACVR2B F08 (monoclonal scFv-phage) (scFv, V domains shown, also called F8) VH: VQLVESGGGLVQPGGSLRLSCAASGFTFSDHYMDWVRQAPGKGLEWVGRTRNKANSYTTEYAASVKGRFTISRDDSKNSLYLQMNSLRAEDTAVYYCTKGAWLDYWGQGTLVTVSS VL: IQMTQSPSAMSASVGDRVTITCRASQGISNYLAWFQQKPGKVPKRLIYGASSLQGGVPSRFSGSGSGTEFTLTITSLQPEDFATYFCLQHKSYPLTFGPGTKVEIK", 2.94),
]

Hey, just so you know, these numbers are from patent US20150030595A1.
